Below, each entry is listed alongside its reported solubility thermodynamic at 4 h.
assay.protocol: physchem
experimental.parameters: simulated intestinal fluid, pH 6.8
Give the number; µM is assumed, so skip it.

Worked cases, solubility thermodynamic at 4 h given:
INSERT INTO measurements (molecule, measurement_label, reported_measurement) VALUES
  ('CC(=O)Nc1ccc(O)cc1 [ACETAMINOPHEN]', 'solubility thermodynamic at 4 h', 3.31),
  ('COCCOC(=O)C1=C(C)NC(C)=C(C(=O)OC(C)C)C1c1cccc([N+](=O)[O-])c1 (configuration not stated) [NIMODIPINE]', 'solubility thermodynamic at 4 h', 9.55),
  ('OC(Cn1cncn1)(Cn1cncn1)c1ccc(F)cc1F [FLUCONAZOLE]', 'solubility thermodynamic at 4 h', 0.324);

For record C=C(C)[C@@H](CC=C(C)C)C[C@@]12C[C@@H](CC=C(C)C)C(C)(C)[C@@](CC=C(C)C)(C(=O)C(C(=O)c3ccc(O)c(O)c3)=C1O)C2=O [GARCINOL] the listed solubility thermodynamic at 4 h is 6.61

[H]/N=C(/N)N[C@H]1[C@H](O)[C@@H](O)[C@H](O[C@@H]2O[C@@H](C)[C@](O)(C=O)[C@H]2O[C@@H]2O[C@@H](CO)[C@H](O)[C@@H](O)[C@@H]2NC)[C@@H](N/C(N)=N\[H])[C@@H]1O [STREPTOMYCIN] yielded solubility thermodynamic at 4 h of 0.851

solubility thermodynamic at 4 h measured on CC(C)=CC[C@H]1C[C@@]23C[C@@H](CC=C(C)C)C(C)(C)[C@@](CC=C(C)C)(C(=O)C(C(=O)c4ccc(O)c(O)c4)=C2OC1(C)C)C3=O [CAMBOGIN] = 0.851

Note to self: solubility thermodynamic at 4 h recorded for CC(C)(C#N)c1cc(Cn2cncn2)cc(C(C)(C)C#N)c1 [ANASTROZOLE] was 1.7

----------
assay.protocol: physchem
experimental.parameters: simulated intestinal fluid, pH 6.8
The following compounds are shown together with reported solubility thermodynamic at 4 h values.
// return numeric value only (unit: µM, not printed)

Guide cases for solubility thermodynamic at 4 h, answers given:
INSERT INTO assay_data (compound, measurement_label, reported_measurement) VALUES
  ('CC(C(=O)[O-])c1ccc(-c2ccccc2)c(F)c1.[Na+] (stereo not drawn)', 'solubility thermodynamic at 4 h', 4.07),
  ('CO[C@H]1/C=C/O[C@@]2(C)Oc3c(C)c(O)c4c(O)c(c(/C=N/N5CCN(C)CC5)c(O)c4c3C2=O)NC(=O)/C(C)=C\C=C\[C@H](C)[C@H](O)[C@@H](C)[C@@H](O)[C@@H](C)[C@H](OC(C)=O)[C@@H]1C', 'solubility thermodynamic at 4 h', 97.7),
  ('NNC(=O)c1ccncc1', 'solubility thermodynamic at 4 h', 288),
  ('CC1(C)[C@@H](O)CC[C@]2(C)[C@H]3C(=O)C=C4[C@@H]5C[C@@](C)(C(=O)O)CC[C@]5(C)CC[C@@]4(C)[C@]3(C)CC[C@@H]12', 'solubility thermodynamic at 4 h', 1.07),
  ('COc1cc(/C=C/C(=O)CC(=O)/C=C/c2ccc(O)c(OC)c2)ccc1O', 'solubility thermodynamic at 4 h', 1.35);

The reported value for CC[C@H]1OC(=O)[C@H](C)[C@@H](O[C@H]2C[C@@](C)(OC)[C@@H](O)[C@H](C)O2)[C@H](C)[C@@H](O[C@@H]2O[C@H](C)C[C@H](N(C)C)[C@H]2O)[C@](C)(O)C[C@@H](C)/C(=N\OCOCCOC)[C@H](C)[C@@H](O)[C@]1(C)O in terms of solubility thermodynamic at 4 h is 0.603

Summary for this compound, C[C@@H]1[C@H](O)[C@@H](C)/C=C/C=C/C=C/C=C/C=C/C=C/C=C/[C@H](O[C@@H]2O[C@H](C)[C@@H](O)[C@H](N)[C@@H]2O)C[C@@H]2O[C@](O)(C[C@@H](O)C[C@@H](O)[C@H](O)CC[C@@H](O)C[C@@H](O)CC(=O)O[C@H]1C)C[C@H](O)[C@H]2C(=O)O : solubility thermodynamic at 4 h is 4.37

The reported value for O=C(/C=C/C=C/c1ccc2c(c1)OCO2)N1CCCCC1 in terms of solubility thermodynamic at 4 h is 70.8

Lookup result for COc1ccc2cc3[n+](cc2c1OC)CCc1cc2c(cc1-3)OCO2.[Cl-] [BERBERINE CHLORIDE] ; measured solubility thermodynamic at 4 h: 398

Data point: CCCCCCCCCCCC1=C(O)C(=O)C=C(O)C1=O ; solubility thermodynamic at 4 h = 1.7

----------
assay.protocol: physchem
experimental.parameters: water
measurement.label: solubility thermodynamic at 24 h (µM)
Return type: number; implicit unit µM.

Take a look at these entries with their results.
INSERT INTO assay_data (molecule, unit_tag, reported_measurement) VALUES
  ('COc1c2occc2c(OC)c2c(=O)cc(C)oc12', 'µM', 100),
  ('OC(Cn1cncn1)(Cn1cncn1)c1ccc(F)cc1F', 'µM', 0.537);

Proceeding to the next molecule to report its solubility thermodynamic at 24 h.
Record COCCOC(=O)C1=C(C)NC(C)=C(C(=O)OC(C)C)C1c1cccc([N+](=O)[O-])c1 (stereo not drawn) , field solubility thermodynamic at 24 h: 4.07

----------
Entries annotated with measured solubility thermodynamic at 4 h
assay.protocol: physchem
experimental.parameters: simulated gi fluid, pH 1.2
API: value field is a number in µM; no unit string.

INSERT INTO results (structure, measurement_label, reported_measurement) VALUES
  ('Cc1cnc(NC(=O)C2=C(O)c3ccccc3S(=O)(=O)N2C)s1', 'solubility thermodynamic at 4 h', 1.41);

Now look at this entry.
So for CC(=O)Oc1ccccc1C(=O)O , the logged solubility thermodynamic at 4 h turned out to be 3310

----------
assay.protocol: physchem
experimental.parameters: buffer, pH 7.4
measurement.label: solubility thermodynamic at 24 h (µM)
Respond with the bare value in µM.

solubility thermodynamic at 24 h recorded for this compound, Cc1cnc(NC(=O)C2=C(O)c3ccccc3S(=O)(=O)N2C)s1 [MELOXICAM] , is 21.9

----------
experimental.parameters: buffer, pH 7.4, 24 h
measurement.label: -log(solubility)
Enter the number alone.

Just so you know, measured -log(solubility) for NC(=O)N1c2ccccc2C=Cc2ccccc21 [CARBAMAZEPINE] came out at 4.48

Reported -log(solubility) for CCCC1O[C@@H]2C[C@H]3[C@@H]4CCC5=CC(=O)C=C[C@]5(C)[C@H]4[C@@H](O)C[C@]3(C)[C@]2(C(=O)CO)O1 (some centres undefined) [BUDESONIDE] was 5.27

Per the records, this molecule ( CC(=O)Nc1ccc(O)cc1 [ACETAMINOPHEN] ) has -log(solubility) equal to 2.93

The measured -log(solubility) associated with CO[C@H]1/C=C/O[C@@]2(C)Oc3c(C)c(O)c4c(O)c(c(/C=N/N5CCN(C)CC5)c(O)c4c3C2=O)NC(=O)/C(C)=C\C=C\[C@H](C)[C@H](O)[C@@H](C)[C@@H](O)[C@@H](C)[C@H](OC(C)=O)[C@@H]1C [RIFAMPIN] reads 4.14

----------
Reported values of solubility thermodynamic at 4 h for individual entries
assay.protocol: physchem
experimental.parameters: PBS, pH 7.4
The answer should read as a number with its unit following.

Please review the entries below; each comes with its answer.
INSERT INTO results (compound, measurement_label, reported_measurement) VALUES
  ('COc1cc(/C=C/C(=O)CC(=O)/C=C/c2ccc(O)c(OC)c2)ccc1O', 'solubility thermodynamic at 4 h', '1.35 µM'),
  ('Clc1ccccc1C(c1ccccc1)(c1ccccc1)n1ccnc1', 'solubility thermodynamic at 4 h', '11.5 µM'),
  ('C[C@@H]1[C@H](O)[C@@H](C)/C=C/C=C/C=C/C=C/C=C/C=C/C=C/[C@H](O[C@@H]2O[C@H](C)[C@@H](O)[C@H](N)[C@@H]2O)C[C@@H]2O[C@](O)(C[C@@H](O)C[C@@H](O)[C@H](O)CC[C@@H](O)C[C@@H](O)CC(=O)O[C@H]1C)C[C@H](O)[C@H]2C(=O)O', 'solubility thermodynamic at 4 h', '21.9 µM'),
  ('COc1c2occc2c(OC)c2c(=O)cc(C)oc12', 'solubility thermodynamic at 4 h', '77.6 µM'),
  ('CC[C@H]1OC(=O)[C@H](C)[C@@H](O[C@H]2C[C@@](C)(OC)[C@@H](O)[C@H](C)O2)[C@H](C)[C@@H](O[C@@H]2O[C@H](C)C[C@H](N(C)C)[C@H]2O)[C@](C)(OC)C[C@@H](C)C(=O)[C@H](C)[C@@H](O)[C@]1(C)O', 'solubility thermodynamic at 4 h', '0.676 µM'),
  ('CCS(=O)(=O)CCn1c([N+](=O)[O-])cnc1C', 'solubility thermodynamic at 4 h', '603 µM');

Record CN(C/C=C/C#CC(C)(C)C)Cc1cccc2ccccc12.Cl [TERBINAFINE HYDROCHLORIDE] , field solubility thermodynamic at 4 h: 0.302 µM

Recorded solubility thermodynamic at 4 h (compound NC(=O)c1cnccn1 [PYRAZINAMIDE] ): 5370 µM

Kindly note the recorded solubility thermodynamic at 4 h for CN1C(=N)N(C)/C(=C/c2c[nH]c3ccccc23)C1=O , which is 56.2 µM

Value of measured solubility thermodynamic at 4 h for the entry CC[C@H]1OC(=O)[C@H](C)[C@@H](O[C@H]2C[C@@](C)(OC)[C@@H](O)[C@H](C)O2)[C@H](C)[C@@H](O[C@@H]2O[C@H](C)C[C@H](N(C)C)[C@H]2O)[C@](C)(O)C[C@@H](C)/C(=N\OCOCCOC)[C@H](C)[C@@H](O)[C@]1(C)O : 1.2 µM
